Values from patent US20250171465A1

This section presents compounds with their documented IC50 values.
- System: KU1919.1
- assayExplanation: Cell Titer Glo (CTG) proliferation assay, KU1919
- Format: cell-based
- runConditions: Homo sapiens, KU-19-19; KU1919.1 cells, 72.0 hrs.; read-out: AVE CTG Proliferation KU1919.1 72.0 hrs.

{"compound": "NC1(C(=O)N[C@@H](CCN2CCN(C(=O)CN3CCC(OC4CCN(C(=O)[C@H](NC(=O)c5cc(C6CN(C(=O)C7CC7)C6)ccc5F)C5CCCCC5)CC4)CC3)CC2)c2ccc(Cl)cc2)CCN(c2ncnc3[nH]ccc23)CC1 [Compound I-227]", "IC50": "1 to 5 µM"}
{"compound": "NC1(C(=O)N[C@@H](CCN2CCC(OC3CCN(C(=O)[C@H](NC(=O)c4cccc(C5CCCN(C(=O)CNC6CC6)C5)c4)C4CCCCC4)CC3)CC2)c2ccc(Cl)cc2)CCN(c2ncnc3[nH]ccc23)CC1 (stereo partly shown) [Compound I-250]", "IC50": "1 to 5 µM"}
{"compound": "NC1(C(=O)N[C@@H](CCNS(=O)(=O)CCCCNC(=O)[C@H](NC(=O)c2cccc(C3CCCN(C(=O)CNCc4ccc(F)cc4F)C3)c2)C2CCCCC2)c2ccc(Cl)cc2)CCN(c2ncnc3[nH]ccc23)CC1 (stereo partly shown) [Compound I-239]", "IC50": "> 10 µM"}
{"compound": "CC1(C(=O)N2CCCC(c3cccc(C(=O)N[C@@H](C(=O)NCCCCCOCC[C@H](NC(=O)C4(N)CCN(c5ncnc6[nH]ccc56)CC4)c4ccc(Cl)cc4)C4CCCCC4)c3)C2)CC1 (stereo partly shown) [Compound I-297]", "IC50": "5 to 10 µM"}
{"compound": "C=CC(=O)N1CCN(c2ccc(CCC(=O)NCCOCCNCC[C@H](NC(=O)C3(N)CCN(c4ncnc5[nH]ccc45)CC3)c3ccc(Cl)cc3)o2)C(=O)C1 [Compound I-287]", "IC50": "> 10 µM"}
{"compound": "NC1(C(=O)N[C@@H](CCN2CCN(C(=O)CN3CCC(OC4CCN(C(=O)c5cccc(C6CCCN(C(=O)C7CC7)C6)c5)CC4)CC3)CC2)c2ccc(Cl)cc2)CCN(c2ncnc3[nH]ccc23)CC1 (stereo partly shown) [Compound I-255]", "IC50": "> 10 µM"}
{"compound": "NC1(C(=O)N[C@@H](CCN2CCC(OC3CCN(C(=O)[C@H](NC(=O)c4ccc(C5CCN(C(=O)C6CC6)CC5)cc4)C4CCCCC4)CC3)CC2)c2ccc(Cl)cc2)CCN(c2ncnc3[nH]ccc23)CC1 [Compound I-231]", "IC50": "1 to 5 µM"}

---

- System: KU1919.1
- assayExplanation: Cell Titer Glo (CTG) proliferation assay, KU1919
- Assay type: cell-based
- runConditions: Homo sapiens, KU-19-19; KU1919.1 cells, 72.0 hrs.; read-out: AVE CTG Proliferation KU1919.1 72.0 hrs.
- Experimental: Seed cells in 40 μL of cell culture media into each well of 384-well cell culture plate, spin them at room temperature at 1,000 RPM for 1 minute and then transfer the plates into 37° C. 5% CO2 incubator overnight. Next day, treat cells with 40 nL of diluted compound and return to incubator. After compound treatment for 3 days, Add 30 μL of CellTiter-Glo reagent (Promega) into each well to be detected. Then place the plates at room temperature for 30 min followed by reading on EnVision. […]
pIC50: −log10 of the molar value.
quantityName: pIC50

{"compound": "CC(C)(C)OC(=O)N1CCC(OC2CCN(CC[C@H](NC(=O)C3(N)CCN(c4ncnc5[nH]ccc45)CC3)c3ccc(Cl)cc3)CC2)CC1", "testValue": "5.30 to 6.00"}
{"compound": "NC1(C(=O)N[C@@H](CCN2CCC(OC3CCN(C(=O)[C@H](NC(=O)c4ccc(C5CCN(C(=O)CNCc6ccc(F)cc6F)CC5)cc4)C4CCCCC4)CC3)CC2)c2ccc(Cl)cc2)CCN(c2ncnc3[nH]ccc23)CC1", "testValue": "5.30 to 6.00"}
{"compound": "C[C@@H]1C[C@@H](O)c2ncnc(N3CCN(C(=O)[C@H](CNCCNC(=O)CN4CCC(CN5CCNCC5)CC4)c4ccc(Cl)cc4)CC3)c21", "testValue": "< 5.00"}
{"compound": "CC(C)NC[C@@H](C(=O)N1CCN(c2ncnc3c2[C@H](C)C[C@H]3O)CC1)c1ccc(Cl)cc1 [GDC-0068, Ipatasertib, reference compound]", "testValue": "< 5.00"}
{"compound": "NC1(C(=O)N[C@@H](CCN2CCC(OC3CCN(C(=O)[C@H](NC(=O)c4cccc(C5CN(C(=O)CNC6CC6)C5)c4)C4CCCCC4)CC3)CC2)c2ccc(Cl)cc2)CCN(c2ncnc3[nH]ccc23)CC1", "testValue": "5.30 to 6.00"}
{"compound": "CC1(C(=O)N2CCCC(c3cccc(C(=O)N[C@@H](C(=O)N4CCC(OC5CCN(CCOCC[C@H](NC(=O)C6(N)CCN(c7ncnc8[nH]ccc78)CC6)c6ccc(Cl)cc6)CC5)CC4)C4CCCCC4)c3)C2)CC1 (stereo partly drawn)", "testValue": "5.30 to 6.00"}
